Values from ChEMBL document CHEMBL1138219

Listed compounds paired with reported GI50
assay: Cytotoxicity against human SN12C cell line; format: cell-based; details: SN12C cells
Measurement name: GI50

COc1cccc2c1-c1c(c3ccc([N+](=O)[O-])cc3c(=O)n1CCCCl)C2=O = 15.8 µM
NCCCn1c2c(c3ccc([N+](=O)[O-])cc3c1=O)C(=O)c1cc3c(cc1-2)OCO3 = < 0.01 µM
COc1cc2c(cc1OC)-c1c(c3ccc([N+](=O)[O-])cc3c(=O)n1CCCBr)C2=O = 4.27 µM
COc1ccc2c(c1OC)-c1c(c3ccc([N+](=O)[O-])cc3c(=O)n1CCCN)C2=O = 0.977 µM

----------
Listed compounds paired with reported GI50
experiment: Cytotoxicity against human OVCAR-3 cell line; format: cell-based; details: OVCAR-3 cells
Measurement name: GI50

COc1cc2c(c(OC)c1OC)C(=O)[C@@H]1c3ccc([N+](=O)[O-])cc3C(=O)N(CCCBr)[C@H]21 (relative stereo) = < 0.01 µM
COc1cc2c(cc1OC)-c1c(c3ccc([N+](=O)[O-])cc3c(=O)n1CCCN=[N+]=[N-])C2=O = > 100 µM
COc1cc2c(c(OC)c1OC)-c1c(c3ccc([N+](=O)[O-])cc3c(=O)n1CCCBr)C2=O = > 100 µM

----------
Listed compounds paired with reported GI50
assay: Cytotoxicity against human DU145 cell line; type: cell-based; conditions: DU-145 cells
Measurement name: GI50

NCCCn1c2c(c3ccc([N+](=O)[O-])cc3c1=O)C(=O)c1cc3c(cc1-2)OCO3 = < 10 nM
COc1ccc2c(c1)C(=O)c1c-2n(CCCN=[N+]=[N-])c(=O)c2cc([N+](=O)[O-])ccc12 = < 1 nM
COc1cc2c(c(OC)c1OC)C(=O)c1c-2n(CCCN=[N+]=[N-])c(=O)c2cc([N+](=O)[O-])ccc12 = > 100000 nM
